Collected inhibition at 0.1 µM values appear next to each entry.
# tgt: human recombinant adrenergic α2B receptor (Homo sapiens, UniProt P18089)
# Construct: expressed in transfected cells; host or cells: CHO-K1
# Sequence (P18089 1-450): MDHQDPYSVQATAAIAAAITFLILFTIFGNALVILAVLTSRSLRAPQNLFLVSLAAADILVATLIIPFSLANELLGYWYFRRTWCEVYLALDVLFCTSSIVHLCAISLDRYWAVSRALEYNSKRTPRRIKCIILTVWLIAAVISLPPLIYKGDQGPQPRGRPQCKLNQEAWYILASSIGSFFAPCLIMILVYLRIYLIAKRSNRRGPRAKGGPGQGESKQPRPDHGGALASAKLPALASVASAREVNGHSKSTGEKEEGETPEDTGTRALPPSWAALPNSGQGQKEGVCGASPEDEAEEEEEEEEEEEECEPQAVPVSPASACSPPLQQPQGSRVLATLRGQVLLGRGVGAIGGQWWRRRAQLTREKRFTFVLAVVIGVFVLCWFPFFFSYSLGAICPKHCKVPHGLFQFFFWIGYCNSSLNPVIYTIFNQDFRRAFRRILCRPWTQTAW
# assay method text: Radioligand binding, adrenergic α2B receptor ([3H]Rauwolscine)
# condition details: 0.1 μM compound, CHO-K1 cells, read-out: Percentage inhibition of ligand binding, Adrenergic α2B
Give just the numeric value; % need not be written.

>  <compound>
Cc1ccc2c(c1)c1c(n2-c2cscc2-c2ccc(O)nc2)CCN(C)C1 [Compound 49]

>  <tgt>
human recombinant adrenergic α2B receptor (Homo sapiens, UniProt P18089)

>  <scale unit>
%

>  <inhibition at 0.1 µM>
31

$$$$
>  <compound>
CNC(=O)c1ccc(-c2ccccc2-n2c3c(c4cc(C)ccc42)CN(C)CC3)cn1 [Compound No. 71]

>  <tgt>
human recombinant adrenergic α2B receptor (Homo sapiens, UniProt P18089)

>  <scale unit>
%

>  <inhibition at 0.1 µM>
89

$$$$
>  <compound>
Cc1ccc2c(c1)c1c(n2-c2cscc2-c2ccc3c(ccn3C)c2)CCN(C)C1 [Compound 33]

>  <tgt>
human recombinant adrenergic α2B receptor (Homo sapiens, UniProt P18089)

>  <scale unit>
%

>  <inhibition at 0.1 µM>
95

$$$$
>  <compound>
Cc1ccc2c(c1)c1c(n2-c2ccc(-c3ccnn3C)cn2)CCN(C)C1 [Compound No. 146]

>  <tgt>
human recombinant adrenergic α2B receptor (Homo sapiens, UniProt P18089)

>  <scale unit>
%

>  <inhibition at 0.1 µM>
54

$$$$
>  <compound>
Cc1ccc2c(c1)c1c(n2-c2cscc2-c2ccc(S(C)(=O)=O)cc2)CCN(C)C1 [Compound No. 76]

>  <tgt>
human recombinant adrenergic α2B receptor (Homo sapiens, UniProt P18089)

>  <scale unit>
%

>  <inhibition at 0.1 µM>
94

$$$$

Qu. Quick check: inhibition at 0.1 µM of Cc1ccc2c(c1)c1c(n2-c2cccc(-c3cnn(C)c3)c2)CCN(C)C1 [Compound 46] ?
Ans. 21

Qu. Another compound: Cc1ccc2c(c1)c1c(n2-c2ccccc2-c2ccc3c(ccn3C)c2)CCN(C)C1 [Compound No. 85]
Ans. 98

Qu. Then this compound: Cc1ccc2c(c1)c1c(n2-c2ccc(-c3cnc(N(C)C)nc3)cn2)CCN(C)C1 [Compound No. 138]
Ans. 82

Qu. Try this compound next: Cc1ccc2c(c1)c1c(n2-c2ccccc2-c2ccc(F)cc2)CCN(C)C1 [Compound 10]
Ans. 85

Qu. Ok, now Cc1ccc2c(c1)c1c(n2-c2ccc(-c3cccc4[nH]ncc34)cn2)CCN(C)C1 [Compound No. 147]
Ans. 43

Qu. Another compound to check: CNC(=O)c1cc(-n2c3c(c4cc(C)ccc42)CN(C)CC3)cs1 [Compound No. 78]
Ans. 86

Qu. Next compound up: Cc1ccc2c(c1)c1c(n2-c2cccc(-c3ccc(O)nc3)c2)CCN(C)C1 [Compound 52]
Ans. 36

Qu. Also check CC(=O)Nc1ccc(-c2cccc(-n3c4c(c5cc(C)ccc53)CN(C)CC4)c2)cn1 [Compound 45]
Ans. 6

Qu. // repeat for Cc1ccc2c(c1)c1c(n2-c2ccc(-c3ccc(F)nc3)cn2)CCN(C)C1 [Compound No. 142] and report
Ans. 91

Qu. Also Cc1ccc2c(c1)c1c(n2-c2ccccc2-c2cnn(C)c2)CCN(C)C1 [Compound No. 86] ?
Ans. 67

Qu. Also CNC(=O)c1ccc(-c2cccc(-n3c4c(c5cc(C)ccc53)CN(C)CC4)c2)cn1 [Compound No. 75] ?
Ans. 16

Qu. How about Cc1ccc2c(c1)c1c(n2-c2ccc(-c3cccnc3)cn2)CCN(C)C1 [Compound No. 133] ?
Ans. 77

Qu. Another compound to look at: Cc1csc(-c2cscc2-n2c3c(c4cc(C)ccc42)CN(C)CC3)c1 [Compound 50]
Ans. 103

Qu. Would you kindly repeat that for Cc1ccc2c(c1)c1c(n2-c2cscc2-c2cnc(N(C)C)nc2)CCN(C)C1 [Compound 40] ?
Ans. 89

Qu. Likewise for Cc1ccc2c(c1)c1c(n2-c2ccccc2-c2ccncc2)CCN(C)C1 [Compound 5] ?
Ans. 78

Qu. Similarly, Cc1ccc2c(c1)c1c(n2-c2cnc3ccccc3c2)CCN(C)C1 [Compound No. 88] ?
Ans. 80

* * *

# tgt: human recombinant adrenergic α2B receptor (Homo sapiens)
# Construct: expressed in transfected cells; host or cells: CHO-K1
# assay method text: Radioligand binding, adrenergic α2B receptor ([3H]Rauwolscine)
# condition details: 0.1 μM compound, CHO-K1 cells, read-out: Percentage inhibition of ligand binding, Adrenergic α2B
Rule: condition met for inhibition at 0.1 µM not less than 60%, condition not met for anything less.

Some solved cases for reference:
>  <smiles code>
Cc1ccc2c(c1)c1c(n2-c2ccoc2)CCN(C)C1

>  <assigned label>
condition not met

$$$$
>  <smiles code>
Cc1ccc2c(c1)c1c(n2-c2ccccc2-c2ccc(C)s2)CCN(C)C1

>  <assigned label>
condition met

$$$$

Qu. Test whether the molecule Cc1cc(C)c2c(c1)c1c(n2-c2cscc2-c2ccncc2)CCN(C)C1 records inhibition at 0.1 µM of 60% or higher.
Ans. condition not met

Qu. Please do the same for Cc1ccc2c(c1)c1c(n2-c2cccc(-c3cnc(N(C)C)nc3)c2)CCN(C)C1 as well.
Ans. condition not met

Qu. Cool, now Cc1ccc2c(c1)c1c(n2-c2cscc2-c2sccc2C)CCN(C)C1
Ans. condition met

Qu. Another: Cc1ccc2c(c1)c1c(n2-c2ccccc2-c2cncc3ccccc23)CCN(C)C1
Ans. condition not met

Qu. Field entry: CNC(=O)c1cccc(-c2cscc2-n2c3c(c4cc(C)ccc42)CN(C)CC3)c1
Ans. condition not met

Qu. Moving on to Cc1cc(C)c2c(c1)c1c(n2-c2cccc(-c3ccncc3)c2)CCN(C)C1
Ans. condition not met

Qu. // repeat for Cc1ccc2c(c1)c1c(n2-c2ccc(-c3cnn(C)c3)cn2)CCN(C)C1 and report
Ans. condition met

Qu. Thanks! And Cc1ccc2c(c1)c1c(n2-c2ccc(-c3sccc3C)cn2)CCN(C)C1 ?
Ans. condition met

Qu. Another: Cc1ccc2c(c1)c1c(n2-c2ccc(-c3ccc(C)nc3)cn2)CCN(C)C1
Ans. condition met

Qu. How about Cc1ccc2c(c1)c1c(n2-c2ccccc2-c2ccc(S(N)(=O)=O)cc2)CCN(C)C1 ?
Ans. condition met

* * *

# tgt: human recombinant adrenergic α1D receptor (Homo sapiens, UniProt P25100)
# Construct: expressed in transfected cells; host or cells: HEK-293
# Sequence (P25100 whole entry): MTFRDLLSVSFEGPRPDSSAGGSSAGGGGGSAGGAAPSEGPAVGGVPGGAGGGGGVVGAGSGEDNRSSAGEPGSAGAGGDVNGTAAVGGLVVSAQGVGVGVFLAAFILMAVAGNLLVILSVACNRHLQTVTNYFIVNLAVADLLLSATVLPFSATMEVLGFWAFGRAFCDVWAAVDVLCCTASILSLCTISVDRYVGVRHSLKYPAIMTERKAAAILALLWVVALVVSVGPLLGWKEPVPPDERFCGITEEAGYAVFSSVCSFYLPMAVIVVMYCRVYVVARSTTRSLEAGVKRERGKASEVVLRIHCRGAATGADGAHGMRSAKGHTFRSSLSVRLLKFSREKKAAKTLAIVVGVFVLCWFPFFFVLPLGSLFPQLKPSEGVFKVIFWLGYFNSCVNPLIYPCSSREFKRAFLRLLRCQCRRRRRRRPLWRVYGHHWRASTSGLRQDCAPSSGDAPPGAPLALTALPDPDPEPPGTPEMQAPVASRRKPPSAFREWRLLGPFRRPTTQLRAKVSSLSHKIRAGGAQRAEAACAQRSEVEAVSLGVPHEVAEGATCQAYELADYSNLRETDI
# assay method text: Radioligand binding, adrenergic α1D receptor ([3H]Prazosin)
# condition details: 0.1 μM compound; HEK-293 cells; 0.6 nM [3H]Prazosin; read-out: Percentage inhibition of ligand binding, Adrenergic α1D
The following compounds are shown together with reported inhibition at 0.1 µM values.
Your answer is read as %, so omit the unit and give the number.

Previously resolved entries follow.
>  <smiles code>
Cc1ccc2c(c1)c1c(n2-c2cscc2-c2ccc(F)nc2)CCN(C)C1

>  <tgt>
human recombinant adrenergic α1D receptor (Homo sapiens, UniProt P25100)

>  <value observed>
68

$$$$
>  <smiles code>
Cc1ccc2c(c1)c1c(n2-c2cccc(-c3cn[nH]c3)c2)CCN(C)C1

>  <tgt>
human recombinant adrenergic α1D receptor (Homo sapiens, UniProt P25100)

>  <value observed>
9

$$$$
>  <smiles code>
Cc1ccc2c(c1)c1c(n2-c2ccc(-c3cnn(C)c3)cn2)CCN(C)C1

>  <tgt>
human recombinant adrenergic α1D receptor (Homo sapiens, UniProt P25100)

>  <value observed>
30

$$$$
>  <smiles code>
Cc1ccc2c(c1)c1c(n2-c2cnc3ccccc3c2)CCN(C)C1

>  <tgt>
human recombinant adrenergic α1D receptor (Homo sapiens, UniProt P25100)

>  <value observed>
20

$$$$

Now consider the entry below.
Qu. Form field: reported inhibition at 0.1 µM of Cc1ccc2c(c1)c1c(n2-c2cscc2-c2ccc(S(C)(=O)=O)cc2)CCN(C)C1
Ans. 73
